# targetOrSystem: human 5-HT1A receptors (Homo sapiens)
# Sequence (P08908 1-422): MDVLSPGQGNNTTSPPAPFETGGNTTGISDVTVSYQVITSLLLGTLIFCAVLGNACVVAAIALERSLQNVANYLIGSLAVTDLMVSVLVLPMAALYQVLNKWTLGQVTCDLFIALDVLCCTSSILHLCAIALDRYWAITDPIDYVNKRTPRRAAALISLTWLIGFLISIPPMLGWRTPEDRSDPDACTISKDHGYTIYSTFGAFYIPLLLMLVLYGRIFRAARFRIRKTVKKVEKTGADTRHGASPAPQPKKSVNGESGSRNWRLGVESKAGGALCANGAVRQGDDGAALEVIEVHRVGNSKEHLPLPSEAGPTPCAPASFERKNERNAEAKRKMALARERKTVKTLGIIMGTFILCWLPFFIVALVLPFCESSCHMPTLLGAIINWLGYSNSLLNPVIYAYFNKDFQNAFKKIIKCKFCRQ
Examples of molecules with documented Ki follow.
# do not omit the unit; it follows the number

Recorded Ki, per entry:
molecule="COc1cccc2c1O[C@@H](CN[C@@H]1CC[C@H](c3cn(C)c4ccc(C#N)cc34)C1)CO2 (single isomer, unassigned) [Example 8-Isomer A]" measuredresult="12.6 nM"
molecule="COc1cccc2c1O[C@@H](CN[C@@H]1CC[C@H](c3c[nH]c4ccc(C#N)cc34)C1)CO2 (single isomer, unassigned) [Example 7-Isomer A]" measuredresult="5.29 nM"
molecule="COc1cccc2c1OC(CNC1CCC(c3c[nH]c4ccc(F)cc34)C1)CO2 (stereo not shown)" measuredresult="5.82 nM"
molecule="COc1cccc2c1O[C@@H](CN[C@@H]1CC[C@@H](c3c[nH]c4ccc(F)cc34)C1)CO2 (single isomer, unassigned) [Example 2-Isomer B]" measuredresult="2.05 nM"
molecule="COc1cccc2c1O[C@@H](CN[C@H]1CC[C@H](c3c[nH]c4ccc(F)cc34)C1)CO2 (single isomer, unassigned) [Example 2-Isomer A]" measuredresult="23.6 nM"

Value of measured Ki for the entry COc1cccc2c1O[C@@H](CN[C@H]1CC[C@H](c3cn(C)c4ccc(C#N)cc34)C1)CO2 (single isomer, unassigned) [Example 8-Isomer B] : 25.5 nM

Value of measured Ki for the entry COc1cccc2c1O[C@@H](CN[C@H]1CC[C@@H](c3c[nH]c4ccc(F)cc34)C1)CO2 (single isomer, unassigned) [Example 1-Isomer B] : 3.61 nM

###

# targetOrSystem: cloned human 5-HT1A receptors (Homo sapiens)
# Construct: expressed in transfected cells
# experimentalDetails: 35S-GTPγS binding assay, 5-HT1A function
# Type: biochemical
# testSettings: maximum inhibitory effect; 35S-GTPγS binding, reversal of 8-OHDPAT; unit assumed
Examples of molecules with documented 5-HT1A Function (Imax) follow.
# do not omit the unit; it follows the number

Recorded 5-HT1A Function (Imax), per entry:
molecule="COc1cccc2c1O[C@@H](CN[C@H]1CC[C@H](c3cn(C)c4ccc(F)cc34)C1)CO2 (mixture of isomers) [Example 4]" measuredresult=79%
molecule="COc1cccc2c1O[C@@H](CN[C@H]1CC[C@@H](c3cn(C)c4ccc(F)cc34)C1)CO2 (mixture of isomers) [Example 3]" measuredresult=64%
molecule="CCOc1cccc2c1O[C@@H](CN[C@H]1CC[C@@H](c3c[nH]c4ccc(F)cc34)C1)CO2 (mixture of isomers) [Example 5]" measuredresult=48%
molecule="COc1cccc2c1O[C@@H](CN[C@@H]1CC[C@@H](c3c[nH]c4ccc(F)cc34)C1)CO2 (single isomer, unassigned) [Example 2-Isomer B]" measuredresult=32%

Consider the additional molecule presented here.
Value of measured 5-HT1A Function (Imax) for the entry COc1cccc2c1OC(CNC1CCC(c3c[nH]c4ccc(F)cc34)C1)CO2 (centres unmarked) [Example 1] : 100%

###

# targetOrSystem: cloned human 5-HT1A receptors (Homo sapiens)
# Construct: expressed in transfected cells
# experimentalDetails: 35S-GTPγS binding assay, 5-HT1A function
# Assay type: biochemical
# testSettings: maximum inhibitory effect; 35S-GTPγS binding, reversal of 8-OHDPAT; unit assumed
quantityKind: 5-HT1A Function (Imax)

compound="COc1cccc2c1O[C@@H](CN[C@@H]1CC[C@H](c3c[nH]c4ccc(F)cc34)C1)CO2 (single isomer, unassigned) [Example 1-Isomer A]" measuredresult=78%

Value of measured 5-HT1A Function (Imax) for the entry CCOc1cccc2c1O[C@@H](CN[C@H]1CC[C@H](c3c[nH]c4ccc(F)cc34)C1)CO2 (mixture of isomers) : 25%

Value of measured 5-HT1A Function (Imax) for the entry COc1cccc2c1O[C@@H](CN[C@H]1CC[C@@H](c3c[nH]c4ccc(F)cc34)C1)CO2 (single isomer, unassigned) [Example 1-Isomer B] : 100%

###

# targetOrSystem: cloned human 5-HT1A receptors (Homo sapiens, UniProt P08908)
# Sequence (P08908 1-422): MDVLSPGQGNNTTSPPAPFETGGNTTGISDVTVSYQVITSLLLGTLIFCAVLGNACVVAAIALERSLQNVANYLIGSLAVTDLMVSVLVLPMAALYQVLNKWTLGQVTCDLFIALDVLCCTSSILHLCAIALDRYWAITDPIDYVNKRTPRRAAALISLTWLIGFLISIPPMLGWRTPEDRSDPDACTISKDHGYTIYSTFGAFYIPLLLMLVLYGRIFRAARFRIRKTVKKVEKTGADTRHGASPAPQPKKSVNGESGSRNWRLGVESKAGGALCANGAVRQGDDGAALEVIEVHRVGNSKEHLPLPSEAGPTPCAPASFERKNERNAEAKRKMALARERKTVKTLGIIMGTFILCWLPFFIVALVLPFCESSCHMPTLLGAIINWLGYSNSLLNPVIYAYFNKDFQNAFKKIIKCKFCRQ
quantityKind: log10 of IC50 (log10 of the value in nM)
Note the log scale: values are log10 of IC50 expressed in nM.

compound="COc1cccc2c1O[C@@H](CN[C@H]1CC[C@H](c3c[nH]c4ccc(F)cc34)C1)CO2 (single isomer, unassigned) [Example 2-Isomer A]" quantitykind="log10 of IC50" measuredresult=2.57
compound="COc1cccc2c1O[C@@H](CN[C@H]1CC[C@@H](c3cn(C)c4ccc(F)cc34)C1)CO2 (mixture of isomers) [Example 3]" quantitykind="log10 of IC50" measuredresult=2.18
compound="COc1cccc2c1O[C@@H](CN[C@@H]1CC[C@@H](c3c[nH]c4ccc(F)cc34)C1)CO2 (single isomer, unassigned) [Example 2-Isomer B]" quantitykind="log10 of IC50" measuredresult=1.88
compound="COc1cccc2c1O[C@@H](CN[C@H]1CC[C@@H](c3c[nH]c4ccc(F)cc34)C1)CO2 (single isomer, unassigned) [Example 1-Isomer B]" quantitykind="log10 of IC50" measuredresult=1.34
compound="CCOc1cccc2c1O[C@@H](CN[C@H]1CC[C@H](c3c[nH]c4ccc(F)cc34)C1)CO2 (mixture of isomers) [Example 6]" quantitykind="log10 of IC50" measuredresult=2.56
compound="CCOc1cccc2c1O[C@@H](CN[C@H]1CC[C@@H](c3c[nH]c4ccc(F)cc34)C1)CO2 (mixture of isomers) [Example 5]" quantitykind="log10 of IC50" measuredresult=2.02

Value of measured log10 of IC50 for the entry COc1cccc2c1O[C@@H](CN[C@@H]1CC[C@H](c3c[nH]c4ccc(F)cc34)C1)CO2 (single isomer, unassigned) [Example 1-Isomer A] : 1.48

Value of measured log10 of IC50 for the entry COc1cccc2c1OC(CNC1CCC(c3c[nH]c4ccc(F)cc34)C1)CO2 (stereo not drawn) [Example 1] : 1.74

Value of measured log10 of IC50 for the entry COc1cccc2c1O[C@@H](CN[C@H]1CC[C@H](c3c[nH]c4ccc(C#N)cc34)C1)CO2 (single isomer, unassigned) [Example 7-Isomer B] : 1.38

###

# targetOrSystem: human 5-HT1A receptors (Homo sapiens)
# Sequence (P08908 1-422): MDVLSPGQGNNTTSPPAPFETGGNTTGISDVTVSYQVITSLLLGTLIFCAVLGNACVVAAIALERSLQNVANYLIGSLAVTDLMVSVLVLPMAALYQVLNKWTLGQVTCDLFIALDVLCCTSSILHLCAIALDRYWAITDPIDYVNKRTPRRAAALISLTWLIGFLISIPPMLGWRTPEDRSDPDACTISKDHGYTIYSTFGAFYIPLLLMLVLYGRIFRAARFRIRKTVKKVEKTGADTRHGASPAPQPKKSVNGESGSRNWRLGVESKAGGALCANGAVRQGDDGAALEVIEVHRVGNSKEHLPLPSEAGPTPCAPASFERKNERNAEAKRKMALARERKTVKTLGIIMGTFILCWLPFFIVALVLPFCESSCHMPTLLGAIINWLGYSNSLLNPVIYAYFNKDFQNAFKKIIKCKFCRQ
quantityKind: Ki (nM)
Express it in nM; write the number only.

molecule="COc1cccc2c1O[C@@H](CN[C@H]1CC[C@H](c3c[nH]c4ccc(C#N)cc34)C1)CO2 (single isomer, unassigned) [Example 7-Isomer B]" measuredresult=9.62
molecule="COc1cccc2c1O[C@@H](CN[C@H]1CC[C@H](c3c[nH]c4ccc(F)cc34)C1)CO2 (mixture of isomers) [Example 2]" measuredresult=14.5

COc1cccc2c1O[C@@H](CN[C@@H]1CC[C@H](c3c[nH]c4ccc(F)cc34)C1)CO2 (single isomer, unassigned) [Example 1-Isomer A] on human 5-HT1A receptors (Homo sapiens) gives Ki = 7.52

// data source = patent US7488751B2
